# experimental system: T1, SARS-COV-2 RBD (SARS-COV-2, UniProt P0DTC2 319-539)
# T1 construct: also called WT RBD
# procedure details: ELISA, RBD coated on plate
In plain terms, low EC50, meaning strictly below 2 ng/mL, gives 1, and everything else gives -1.

{"binder": "C987 (antibody, V domains shown) VH: QVQLQESGPGLVKPSETLSLTCNVSGDIINKYYWSWIRQSPGKGLEWIGYIYYSGTTYYNPSLKSRVTMSVGTSKQQFSLRLTSVTAADTAVYYCARMLSTEWSFNWFDPWGPGTLVTVSS VL: SYELTQPPSVSVSPGQAASITCSGDKLGDKFACWYQQKPGQSPVLVIYQNDKRPTGIPERFSGSNSGNTATLTISGTQAMDEADYFCQAWDSTSASVFGTGTKVTVL", "class": -1}
{"binder": "C941 (antibody, V domains shown) VH: QVQLVQSGAEVKKPGSSVKVSCKASGGTSRSYPISWVRQAPGQGLEWMGRIIPIVGTANYAQRFQGRVTITADESTGTAYMELSSLRSEDTAVYYCARNRGYSDYGSVYYFDYWGQGTLVTVSS VL: QSVLTQPPSVSGAPGQRVTISCTGSSSNIGAGYDVHWYQQLPGAAPKLLIYRNINRPSGVPDRFSGSKSGTSASLAITGLQADDEADYYCQSYDSSLSGSVFGGGTKLTV", "class": 1}
{"binder": "C1011 (antibody, V domains shown) VH: QVQLVESGGGVVQPGRSLRLSCAVSGFTFSHYAMHWVRQAPGKGLEWVAVISYDGADKYYADSVRGRFTIARDNSKNTLFLQMSSLRPEDTAVYYCAKKGQPYCGGDCHFYYLDYWGQGTLVTVSS VL: DIQMTQSPSSLSASVGDRVTITCQASQDISNHLNWYQQKPGKAPKLLIYDASNLETGVPSRFSGSGSGTDFTFTISSLQAEDIATYYCQQYDNLPPITFGQGTRLEIK", "class": 1}
{"binder": "C936 (antibody, V domains shown) VH: EVQLVESGGGLIQPGGSLRLSCAASGFTVSSNYMSWVRQAPGKGLEWVSVIYSGGSTFYADSVKGRFTISRDNSKNTLYLQMNSLRAEDTAVYYCARDLGTGLFDYWGQGTLVTVSS VL: DIQLTQSPSFLSASVGDRVTITCRASQGISSYLAWYQQKPGKAPKLLIYAASTLQSGVPSRFSGSGSGTEFTLTISSLQPEDFATYYCQQLDSYPPGTFGPGTKVDIK", "class": 1}
{"binder": "C1063 (antibody, V domains shown) VH: EVQLVQSGAEVKKPGESLKISCKGYGNSFNNYWIAWVRQMPVKGLEWMGVINPGDSDTRYSPSFQGQVTISVDKSISTAYLQWSSLKASDTAMYYCARTWSPAAVAFFDSWGQGTLVTVS VL: NFMLTQPHSVSESPGKTVTISCTRSSDSIGSNYVQWYQQRPGSSPTIVIYEDSQRPSGVPHRFSGSFDSSSNSASLTISGLKTEDEADYYCQSWDSGNLVFGGGTKLTVL", "class": -1}
